Molecular target: human mAChRM1 (Homo sapiens, UniProt P11229)
Construct: host or cells: CHO-K1
Sequence (P11229 1-460): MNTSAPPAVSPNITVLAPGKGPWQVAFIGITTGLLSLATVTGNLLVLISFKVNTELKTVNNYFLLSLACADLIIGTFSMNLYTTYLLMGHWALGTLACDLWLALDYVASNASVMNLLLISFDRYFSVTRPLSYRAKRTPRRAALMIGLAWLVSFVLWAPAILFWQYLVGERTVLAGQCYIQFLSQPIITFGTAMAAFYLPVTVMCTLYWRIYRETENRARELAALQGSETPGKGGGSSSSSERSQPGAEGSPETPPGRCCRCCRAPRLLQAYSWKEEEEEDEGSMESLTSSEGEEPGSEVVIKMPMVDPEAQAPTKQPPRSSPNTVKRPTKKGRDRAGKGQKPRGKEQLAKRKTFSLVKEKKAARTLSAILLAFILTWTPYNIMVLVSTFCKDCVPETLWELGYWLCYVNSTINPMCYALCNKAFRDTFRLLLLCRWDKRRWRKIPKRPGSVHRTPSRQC
Test: mAChR M1 cell-based functional assay (calcium mobilization), positive allosteric modulator activity: increase in the EC20 acetylcholine response
Details: increase in the EC20 acetylcholine response, read-out: PAM Activity Human M1 EC50
readout: EC50 (µM)

CC(C)(O)c1ccc(-c2cc(F)c(CN3Cc4ccncc4C3=O)c(F)c2)cc1 [Compound 141]: 1.01

[I] Cn1cc2c(-c3cc(F)c(CN4Cc5ncccc5C4=O)c(F)c3)ccc(C(C)(O)CS(C)(=O)=O)c2n1 (stereo not drawn) [Compound 97]
[II] CC(C)(O)c1ccc(-c2cc(F)c(CN3Cc4cccnc4C3=O)c(F)c2)cc1 [Compound 117]
Kindly identify which of I and II has the larger recorded EC50 value. // output: label of the selected item
II
(II: 1.45 µM, I: 0.872 µM)
